Numbers sourced from patent US11352401.

SYSTEM: T1, HLA-B*07 (human)
T1 construct: MHC monomer made peptide-receptive by UV cleavage of a UV-sensitive ligand; also called peptide-receptive MHC class I monomer
ASSAY_OVERVIEW: UV peptide-exchange ELISA; ++++ = yield >75%
MEASURED_METRIC: peptide exchange yield

[[record]]
binder = "SPNSYFRVL [SPNSYFRVL (SEQ ID NO: 470)]"
measured_metric = "peptide exchange yield"
result_value = "> 75%"

[[record]]
binder = "TPKAGPTL [TPKAGPTL (SEQ ID NO: 463)]"
measured_metric = "peptide exchange yield"
result_value = "> 75%"

[[record]]
binder = "YPLFRGINL [YPLFRGINL (SEQ ID NO: 268)]"
measured_metric = "peptide exchange yield"
result_value = "> 75%"

[[record]]
binder = "APYRPPDISL [APYRPPDISL (SEQ ID NO: 290)]"
measured_metric = "peptide exchange yield"
result_value = "> 75%"

[[record]]
binder = "HPAPYGDLL [HPAPYGDLL (SEQ ID NO: 263)]"
measured_metric = "peptide exchange yield"
result_value = "> 75%"

[[record]]
binder = "KPGPPWAAF [KPGPPWAAF (SEQ ID NO: 238)]"
measured_metric = "peptide exchange yield"
result_value = "> 75%"

[[record]]
binder = "YPKDIYSSF [YPKDIYSSF (SEQ ID NO: 223)]"
measured_metric = "peptide exchange yield"
result_value = "> 75%"

[[record]]
binder = "TPLPAVIVL [TPLPAVIVL (SEQ ID NO: 246)]"
measured_metric = "peptide exchange yield"
result_value = "> 75%"

[[record]]
binder = "RPPAAGLRGISL [RPPAAGLRGISL (SEQ ID NO: 259)]"
measured_metric = "peptide exchange yield"
result_value = "> 75%"

[[record]]
binder = "APGPRFLVT [APGPRFLVT (SEQ ID NO: 270)]"
measured_metric = "peptide exchange yield"
result_value = "> 75%"

[[record]]
binder = "KPYQGNPTF [KPYQGNPTF (SEQ ID NO: 233)]"
measured_metric = "peptide exchange yield"
result_value = "> 75%"

[[record]]
binder = "APYKSVTSL [APYKSVTSL (SEQ ID NO: 466)]"
measured_metric = "peptide exchange yield"
result_value = "> 75%"

[[record]]
binder = "SPRDFLSGL [SPRDFLSGL (SEQ ID NO: 250)]"
measured_metric = "peptide exchange yield"
result_value = "> 75%"

[[record]]
binder = "KPFSSFTSM [KPFSSFTSM (SEQ ID NO: 467)]"
measured_metric = "peptide exchange yield"
result_value = "> 75%"

[[record]]
binder = "LPRALLSSL [LPRALLSSL (SEQ ID NO: 473)]"
measured_metric = "peptide exchange yield"
result_value = "> 75%"

[[record]]
binder = "LPRIPFADV [LPRIPFADV (SEQ ID NO: 257)]"
measured_metric = "peptide exchange yield"
result_value = "> 75%"

[[record]]
binder = "YPRGNHWAVGH [YPRGNHWAVGH (SEQ ID NO: 227)]"
measured_metric = "peptide exchange yield"
result_value = "> 75%"

[[record]]
binder = "MPLKHYLLL [MPLKHYLLL (SEQ ID NO: 235)]"
measured_metric = "peptide exchange yield"
result_value = "> 75%"

[[record]]
binder = "SPMYGQAGL [SPMYGQAGL (SEQ ID NO: 468)]"
measured_metric = "peptide exchange yield"
result_value = "> 75%"

